# credit: ChEMBL document CHEMBL5058577

- System: HEK-293T
- Experimental Protocol: Multiplex assay against HEK293T
- Type: toxicity, cell-based
- Condition Context: human, 24 h, 10 µM, compound concentration 10 uM, replicate 1
# Total Cell Count listing for each entry below
Lab note: jot the number down without any unit.

Example cases with answers are listed next.
CC[C@@H](C)Nc1nc(C)nc2c(-c3ccc(OC)nc3C)c(C)nn12    612
Cc1sc2c(c1C)C(c1ccc(Cl)cc1)=N[C@@H](CC(=O)NCCCCCCCCNC(=O)COc1cccc3c1C(=O)N(C1CCC(=O)NC1=O)C3=O)c1nnc(C)n1-2 (some centres undefined)    397
CC(/C=C1\SC(=S)N(CCCC(=O)Nc2ccc(C(=O)O)c(O)c2)C1=O)=C\c1ccccc1    369

Let us examine a further case.
Challenge: Could you share what Total Cell Count was measured for C[C@H](N)COC(=O)[C@@H](CCCCN)NC(=O)Cc1c(-c2ccc3ccccc3c2)[nH]c2c1ccc1ccccc12 , tested on HEK-293T?
Response given: 539

* * *

- System: HEK-293T
- Experimental Protocol: Multiplex assay against HEK293T
- Assay type: toxicity, cell-based
- Condition Context: human, 24 h, 10 µM, compound concentration 10 uM, replicate 1
Parameter Population Mitotic Cells (%): see the listing below.
Expressed in %, but write only the number.

For orientation, consider the following solved cases.
CC[C@@H](C)Nc1nc(C)nc2c(-c3ccc(OC)nc3C)c(C)nn12    62
Cc1sc2c(c1C)C(c1ccc(Cl)cc1)=N[C@@H](CC(=O)NCCCCCCCCNC(=O)COc1cccc3c1C(=O)N(C1CCC(=O)NC1=O)C3=O)c1nnc(C)n1-2 (some centres undefined)    47

Challenge: Given CC(C)COc1ccc(CNC(=O)N(Cc2ccc(F)cc2)C2CCN(C)CC2)cc1 , state its recorded Population Mitotic Cells (%).
Response given: 18

Challenge: Look up Population Mitotic Cells (%): CCCCC1=NC2(CCCC2)C(=O)N1Cc1ccc(-c2ccccc2-c2nnn[nH]2)cc1
Response given: 72

* * *

- System: Fibroblast
- Experimental Protocol: Multiplex assay against human fibroblast
- Type: toxicity, cell-based
- Condition Context: 12 h, 1 µM, compound concentration 1 uM, replicate 2
Quick list: Population Healthy Nuclei (%) per entry.
Give just the number in %; leave the unit off.

COC[C@@H](c1ccc(C(F)(F)F)cc1)N1CCN(C2(C)CCN(C(=O)c3c(C)ncnc3C)CC2)C[C@@H]1C.O=C(O)/C=C\C(=O)O [VICRIVIROC MALEATE]    51

Challenge: Requested read-out Population Healthy Nuclei (%), target or system Fibroblast, entry O=C(CCCc1ccccc1)Nc1nc2ccccc2c(=O)s1
Response given: 49

Challenge: Form field - read-out: Population Healthy Nuclei (%); system: Fibroblast; submitted item: Cc1noc(-c2ccc(-c3ccc(CC(=O)O)cc3)cc2)c1NC(=O)O[C@H](C)c1ccccc1Cl
Response given: 60

Challenge: Provide the documented Population Healthy Nuclei (%) with Fibroblast as the system for CN(C)C(=O)Cn1cc(-c2ccc(-c3cncc4ccccc34)cc2)cn1
Response given: 46

Challenge: Give the reported Population Healthy Nuclei (%) for Cc1cnc(-c2cc(N3CCN(C(=O)CCS(C)(=O)=O)CC3)ncc2Cl)c(C)c1 (system: Fibroblast).
Response given: 36

Challenge: Provide the documented Population Healthy Nuclei (%) with Fibroblast as the system for CC(/C=C1\SC(=S)N(CCCC(=O)Nc2ccc(C(=O)O)c(O)c2)C1=O)=C\c1ccccc1
Response given: 60
